Reported values of log10(K obs / 1) for individual entries
# target entity: Neutrophil elastase (Homo sapiens) (UniProt P08246)
# assay procedure: In vitro inhibition of human leukocyte elastase (HLE), and the Kobs[I] is the second-order rate constant for the time dependent inactivation of HLE by the compound.
Please note: log10 values; quantity K obs / 1; unit M⁻¹ s⁻¹.

Example cases with answers are listed next.
1. CC[C@@]1(C)C(=O)N(C(=O)N[C@H](C)c2ccccc2)[C@H]1Oc1ccc(C(=O)O)cc1
4.18
2. CC1(C)C(=O)N(C(=O)NCc2ccccc2)C1Oc1ccc(C(=O)O)cc1 (stereo not given)
2.45
3. CCC[C@@]1(C)C(=O)N(C(=O)NCc2ccccc2)[C@H]1Oc1ccc(C(=O)O)cc1
3.28
4. CC[C@@]1(C)C(=O)N(C(=O)NCc2ccccc2)[C@@H]1Oc1ccc(C(=O)O)cc1
2.34

[Q] Any idea what log10(K obs / 1) came out for "CC[C@]1(Cc2ccccc2)C(=O)N(C(=O)NCc2ccccc2)[C@H]1Oc1ccc(C(=O)O)cc1" on Neutrophil elastase (Homo sapiens) (UniProt P08246)?
[A] 1.95

----------
# target entity: Neutrophil elastase (Homo sapiens) (UniProt P08246)
# assay procedure: In vitro inhibition of human leukocyte elastase (HLE), and the Kobs[I] is the second-order rate constant for the time dependent inactivation of HLE by the compound.
We label by threshold. Values of K obs / 1 strictly beneath 400 M⁻¹ s⁻¹ are yes (1). Values of 400 M⁻¹ s⁻¹ and up are no (0).

Some solved entries appear below for comparison.
1. CC[C@@]1(Cc2ccccc2)C(=O)N(C(=O)NCc2ccccc2)[C@H]1Oc1ccc(C(=O)O)cc1
yes (1)
2. CC[C@@]1(C)C(=O)N(C(=O)NCc2ccccc2)[C@H]1Oc1ccc(C(=O)O)cc1
no (0)

[Q] Say whether its K obs / 1 is strictly beneath 400 M⁻¹ s⁻¹. Entry: "C=CC[C@]1(CC)C(=O)N(C(=O)NCc2ccccc2)[C@H]1Oc1ccc(C(=O)O)cc1"
[A] no (0)

[Q] Say whether its K obs / 1 is strictly beneath 400 M⁻¹ s⁻¹. Entry: "C[C@]1(Oc2ccc(C(=O)O)cc2)N(C(=O)NCc2ccccc2)C(=O)C12CCCC2"
[A] no (0)

----------
# target entity: Neutrophil elastase (Homo sapiens)
# assay procedure: In vitro human leukocyte elastase (HLE) inhibition, and the Kobs[I] is the second-order rate constant for the time dependent inactivation of HLE by the compound.
observed property: pKi
As a rule, pKi stands for the negative log10 of the concentration, concentration in M.

[Q] Look at this compound and give its reported pKi. "CCC[C@@]1(C)C(=O)N(C(=O)NCc2ccccc2)[C@@H]1Oc1ccc(C(=O)O)cc1"
[A] 4.29

----------
# target entity: Neutrophil elastase (Homo sapiens) (UniProt P08246)
# assay procedure: In vitro inhibition of human leukocyte elastase (HLE), and the Kobs[I] is the second-order rate constant for the time dependent inactivation of HLE by the compound.
Given measured K obs / 1, output 1.0 if it is greater than or equal to 200 M⁻¹ s⁻¹ and 0.0 if not.

Some solved entries appear below for comparison.
1) CC[C@]1(C)C(=O)N(C(=O)NCc2ccccc2)[C@H]1Oc1ccc(C(=O)O)cc1
0.0
2) CC(C)[C@@]1(C)C(=O)N(C(=O)NCc2ccccc2)[C@H]1Oc1ccc(C(=O)O)cc1
0.0
3) CC[C@@H](NC(=O)N1C(=O)[C@](C)(CC)[C@@H]1Oc1ccc(C(=O)O)cc1)c1ccccc1
1.0

[Q] Is K obs / 1 for "CC[C@@]1(C(C)C)C(=O)N(C(=O)NCc2ccccc2)[C@H]1Oc1ccc(C(=O)O)cc1" at or above 200 M⁻¹ s⁻¹?
[A] 0.0

[Q] Is K obs / 1 for "CC[C@@]1(C)C(=O)N(C(=O)N[C@@H](C)c2ccccc2)[C@H]1Oc1ccc(C(=O)O)cc1" at or above 200 M⁻¹ s⁻¹?
[A] 1.0

----------
Reported values of K obs / 1 for individual entries
# target entity: Neutrophil elastase (Homo sapiens)
# assay procedure: In vitro inhibition of human leukocyte elastase (HLE), and the Kobs[I] is the second-order rate constant for the time dependent inactivation of HLE by the compound.
State the answer as a number, implicitly in M⁻¹ s⁻¹.

1. CCC(C)[C@]1(CC)C(=O)N(C(=O)NCc2ccccc2)[C@H]1Oc1ccc(C(=O)O)cc1 (stereo partly drawn)
1200
2. C=CC[C@@]1(CC)C(=O)N(C(=O)NCc2ccccc2)[C@H]1Oc1ccc(C(=O)O)cc1
2000
3. CCC[C@]1(CC)C(=O)N(C(=O)N[C@H](CC)c2ccccc2)[C@H]1Oc1ccc(C(=O)O)cc1
35500
4. CCC[C@]1(CC)C(=O)N(C(=O)N[C@H](C)c2ccccc2)[C@H]1Oc1ccc(C(=O)O)cc1
4500
5. CCC[C@@]1(CC)C(=O)N(C(=O)NCc2ccccc2)[C@H]1Oc1ccc(C(=O)O)cc1
3300
6. CC[C@H](NC(=O)N1C(=O)[C@](C)(CC)[C@@H]1Oc1ccc(C(=O)O)cc1)c1ccccc1
4700
7. CCC1(CC)C(=O)N(C(=O)NCc2ccccc2)[C@]1(C)Oc1ccc(C(=O)O)cc1
1500

[Q] Look at this compound and give its reported K obs / 1. "CCC[C@@H](NC(=O)N1C(=O)[C@@](CC)(CCC)[C@@H]1Oc1ccc(C(=O)O)cc1)c1ccccc1"
[A] 60000

----------
Reported values of log10 K obs / 1 for individual entries
# target entity: Neutrophil elastase (Homo sapiens) (UniProt P08246)
# assay procedure: In vitro inhibition of human leukocyte elastase (HLE), and the Kobs[I] is the second-order rate constant for the time dependent inactivation of HLE by the compound.
Please note: log10 values; quantity K obs / 1; unit M⁻¹ s⁻¹.

1) CCCC1(CCC)C(=O)N(C(=O)NCc2ccccc2)C1Oc1ccc(C(=O)O)cc1 (stereo not given)
3.40
2) CCCC1(CC)C(=O)N(C(=O)NCc2ccccc2)C1Oc1ccc(C(=O)O)cc1 (stereo not given)
3.72
3) CCC[C@@H](NC(=O)N1C(=O)[C@](C)(CC)[C@@H]1Oc1ccc(C(=O)O)cc1)c1ccccc1
5.18
4) CC[C@@]1(COC)C(=O)N(C(=O)NCc2ccccc2)[C@H]1Oc1ccc(C(=O)O)cc1
3.28

Now look at this entry.
[Q] Look at this molecule and give its reported log10 K obs / 1. "CCCC[C@]1(CC)C(=O)N(C(=O)NCc2ccccc2)[C@H]1Oc1ccc(C(=O)O)cc1"
[A] 3.64

----------
# target entity: Neutrophil elastase (Homo sapiens)
# Sequence (whole entry): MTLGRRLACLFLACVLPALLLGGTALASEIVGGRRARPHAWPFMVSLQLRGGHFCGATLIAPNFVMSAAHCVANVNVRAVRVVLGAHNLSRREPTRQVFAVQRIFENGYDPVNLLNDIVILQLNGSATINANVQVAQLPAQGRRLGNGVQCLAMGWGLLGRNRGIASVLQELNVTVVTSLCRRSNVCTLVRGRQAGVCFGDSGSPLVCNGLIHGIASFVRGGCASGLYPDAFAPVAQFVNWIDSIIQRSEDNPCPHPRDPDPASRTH
# assay procedure: Compound at an peroral dose of 30 mpk was tested for the inhibition of HLE-induced lung hemorrhage in hamsters
# Assay type: functional
Lab note: class by inhibition, see low group (below 50%), middle group (50% to below 60%), high group (60% or more)

Some solved entries appear below for comparison.
1. CC[C@H](NC(=O)N1C(=O)[C@](C)(CC)[C@@H]1Oc1ccc(C(=O)O)cc1)c1ccccc1
low group
2. CCC[C@@]1(CC)C(=O)N(C(=O)NCc2ccccc2)[C@H]1Oc1ccc(C(=O)O)cc1
middle group
3. CCCC1(CC)C(=O)N(C(=O)NCc2ccccc2)C1Oc1ccc(C(=O)O)cc1 (stereo not given)
high group
4. CC[C@@H](NC(=O)N1C(=O)[C@](C)(CC)[C@@H]1Oc1ccc(C(=O)O)cc1)c1ccccc1
high group
5. CC[C@@]1(COC)C(=O)N(C(=O)NCc2ccccc2)[C@H]1Oc1ccc(C(=O)O)cc1
low group
6. CCCC[C@]1(CC)C(=O)N(C(=O)NCc2ccccc2)[C@H]1Oc1ccc(C(=O)O)cc1
low group
7. C[C@]1(Oc2ccc(C(=O)O)cc2)N(C(=O)NCc2ccccc2)C(=O)C12CCCC2
low group
8. CCC[C@]1(CC)C(=O)N(C(=O)N[C@H](CC)c2ccccc2)[C@H]1Oc1ccc(C(=O)O)cc1
middle group

Could you now consider this next compound?
[Q] Each compound maps to one class by inhibition. Which class for "CC[C@@]1(C)C(=O)N(C(=O)NCc2ccccc2)[C@H]1Oc1ccc(C(=O)O)cc1" ?
[A] high group

----------
# target entity: Neutrophil elastase (Homo sapiens) (UniProt P08246)
# Sequence (whole entry): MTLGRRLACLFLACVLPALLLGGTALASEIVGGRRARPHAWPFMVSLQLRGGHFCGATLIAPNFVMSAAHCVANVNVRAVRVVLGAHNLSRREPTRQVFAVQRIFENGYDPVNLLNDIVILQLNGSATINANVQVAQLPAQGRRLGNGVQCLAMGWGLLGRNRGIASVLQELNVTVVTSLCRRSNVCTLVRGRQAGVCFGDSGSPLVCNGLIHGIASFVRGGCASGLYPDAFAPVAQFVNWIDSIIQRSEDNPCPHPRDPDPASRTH
# assay procedure: Compound at an peroral dose of 30 mpk was tested for the inhibition of HLE-induced lung hemorrhage in hamsters
# Type: functional
Given measured inhibition, output y if it is greater than or equal to 60% and n if not.

1. CCC[C@@H](NC(=O)N1C(=O)[C@@](CC)(CCC)[C@@H]1Oc1ccc(C(=O)O)cc1)c1ccccc1
n

[Q] Is inhibition for "CCC[C@@H](NC(=O)N1C(=O)[C@](C)(CC)[C@@H]1Oc1ccc(C(=O)O)cc1)c1ccccc1" at or above 60%?
[A] y

[Q] Is inhibition for "C=CC[C@@]1(CC)C(=O)N(C(=O)NCc2ccccc2)[C@H]1Oc1ccc(C(=O)O)cc1" at or above 60%?
[A] n
